- studySystem: human complement C3b protein (human, UniProt P01024 23-667; P01024 749-1663)
- Sequence (P01024 23-667 P314L, chain 1 of 2): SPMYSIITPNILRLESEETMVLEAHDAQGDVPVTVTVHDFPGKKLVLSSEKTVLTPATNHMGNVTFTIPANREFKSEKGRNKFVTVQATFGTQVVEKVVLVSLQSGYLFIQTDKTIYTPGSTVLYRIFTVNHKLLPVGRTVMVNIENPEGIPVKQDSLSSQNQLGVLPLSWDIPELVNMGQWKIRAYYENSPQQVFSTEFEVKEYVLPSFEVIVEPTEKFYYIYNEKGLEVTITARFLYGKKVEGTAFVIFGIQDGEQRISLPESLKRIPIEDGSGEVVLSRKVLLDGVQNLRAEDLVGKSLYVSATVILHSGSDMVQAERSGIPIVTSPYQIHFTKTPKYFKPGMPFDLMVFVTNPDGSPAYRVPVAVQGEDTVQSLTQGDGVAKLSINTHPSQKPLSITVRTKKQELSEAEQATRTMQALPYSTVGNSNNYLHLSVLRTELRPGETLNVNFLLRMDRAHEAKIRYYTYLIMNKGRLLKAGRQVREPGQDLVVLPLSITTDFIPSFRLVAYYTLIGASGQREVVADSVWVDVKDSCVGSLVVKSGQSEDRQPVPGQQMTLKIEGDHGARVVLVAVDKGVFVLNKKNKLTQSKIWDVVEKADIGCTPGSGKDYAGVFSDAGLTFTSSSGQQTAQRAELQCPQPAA
- Sequence (P01024 749-1663, chain 2 of 2): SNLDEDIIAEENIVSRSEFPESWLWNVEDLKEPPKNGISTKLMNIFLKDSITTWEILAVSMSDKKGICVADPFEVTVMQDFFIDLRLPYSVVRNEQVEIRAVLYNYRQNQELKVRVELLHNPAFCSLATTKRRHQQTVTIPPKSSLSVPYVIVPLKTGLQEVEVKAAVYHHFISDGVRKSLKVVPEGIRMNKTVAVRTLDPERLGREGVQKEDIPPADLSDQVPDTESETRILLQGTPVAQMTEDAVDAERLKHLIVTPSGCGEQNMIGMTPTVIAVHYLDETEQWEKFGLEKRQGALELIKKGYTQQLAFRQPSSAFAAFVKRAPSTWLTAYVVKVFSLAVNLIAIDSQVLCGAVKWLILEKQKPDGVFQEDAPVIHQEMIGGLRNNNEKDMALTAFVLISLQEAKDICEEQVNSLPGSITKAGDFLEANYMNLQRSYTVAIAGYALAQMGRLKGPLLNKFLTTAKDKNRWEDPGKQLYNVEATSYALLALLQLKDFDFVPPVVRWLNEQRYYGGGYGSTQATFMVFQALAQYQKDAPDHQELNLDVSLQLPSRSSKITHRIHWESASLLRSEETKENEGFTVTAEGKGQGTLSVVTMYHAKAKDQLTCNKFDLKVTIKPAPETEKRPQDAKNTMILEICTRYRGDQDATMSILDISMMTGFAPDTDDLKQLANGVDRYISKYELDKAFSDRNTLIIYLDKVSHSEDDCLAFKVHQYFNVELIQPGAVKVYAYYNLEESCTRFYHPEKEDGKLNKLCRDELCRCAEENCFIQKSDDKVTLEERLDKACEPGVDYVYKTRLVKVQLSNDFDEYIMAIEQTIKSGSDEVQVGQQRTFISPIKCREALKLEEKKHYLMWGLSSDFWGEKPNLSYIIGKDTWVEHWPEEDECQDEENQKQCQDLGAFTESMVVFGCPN
- protocolNotes: cell-based or functional assay
measurementKind: C3b Dep (nM), human serum, IC50
Express your answer in nM, writing the number without its unit.

Answered examples (2):
MOR09141 Fab (Fab, V domains shown, also called Fab 9141) VH: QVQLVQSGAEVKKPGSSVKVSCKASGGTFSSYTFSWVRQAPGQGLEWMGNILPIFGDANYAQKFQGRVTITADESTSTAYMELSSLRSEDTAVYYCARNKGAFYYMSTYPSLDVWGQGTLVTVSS VL: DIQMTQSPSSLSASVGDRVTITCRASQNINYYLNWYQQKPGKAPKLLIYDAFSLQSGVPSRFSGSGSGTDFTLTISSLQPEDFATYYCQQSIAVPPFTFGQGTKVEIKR    7
MOR09398 Fab (Fab, V domains shown, also called Fab 9398) VH: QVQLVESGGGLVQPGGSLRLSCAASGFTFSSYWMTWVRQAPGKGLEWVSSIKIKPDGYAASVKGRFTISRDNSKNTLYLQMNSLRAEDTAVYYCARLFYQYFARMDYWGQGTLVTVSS VL: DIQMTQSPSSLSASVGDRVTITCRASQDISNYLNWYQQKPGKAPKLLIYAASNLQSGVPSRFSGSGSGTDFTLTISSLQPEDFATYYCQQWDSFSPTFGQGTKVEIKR    13

Next up:
Lookup result for MOR09124 Fab (Fab, V domains shown, HCDR2-matured derivative of parental MOR08305) VH: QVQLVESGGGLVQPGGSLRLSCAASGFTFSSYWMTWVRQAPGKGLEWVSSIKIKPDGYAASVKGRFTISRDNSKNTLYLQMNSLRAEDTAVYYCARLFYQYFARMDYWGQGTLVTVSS VL: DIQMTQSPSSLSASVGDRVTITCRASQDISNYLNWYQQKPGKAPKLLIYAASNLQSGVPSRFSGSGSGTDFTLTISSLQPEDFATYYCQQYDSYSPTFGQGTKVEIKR ; measured C3b Dep (nM), human serum, IC50: 16
